study_target: GST-Aq-NF-kB (Amphimedon queenslandica, UniProt A9Y5G7 2-389)
Sequence: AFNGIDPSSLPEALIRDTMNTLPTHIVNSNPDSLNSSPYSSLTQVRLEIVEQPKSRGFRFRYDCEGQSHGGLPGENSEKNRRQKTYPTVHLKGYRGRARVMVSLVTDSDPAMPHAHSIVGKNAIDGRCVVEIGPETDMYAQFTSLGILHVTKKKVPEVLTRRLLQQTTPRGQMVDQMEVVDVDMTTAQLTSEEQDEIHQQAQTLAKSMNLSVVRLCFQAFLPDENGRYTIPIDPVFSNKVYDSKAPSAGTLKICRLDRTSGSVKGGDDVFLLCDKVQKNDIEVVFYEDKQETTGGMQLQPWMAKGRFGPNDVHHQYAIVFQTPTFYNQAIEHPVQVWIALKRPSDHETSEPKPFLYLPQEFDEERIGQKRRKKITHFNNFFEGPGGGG
protocol_description: protein-binding microarray (PBM); PBM: ~300 nM protein, 6 mM HEPES pH 7.8, 80 mM KCl, 0.5 mM EDTA, 0.5 mM EGTA, 6% glycerol, 35 ng/ul poly-dIdC, 1% milk, 1 h, room temperature; Ap Aiptasia and Nv Nematostella (sea anemones) / Co Capsaspora / Aq Amphimedon (sponge) / Dm Drosophila / Hu human; RHD is the Rel homology domain; high values mean tight binding
assay_setup: dsDNA, one strand shown
Entries and their binding signal
Numeric only. Scale: z-score

>>> print(df.to_string())
                                        seq                              study_target  value_measured
0  CCGATTAACATCAACACTCCCCCTGATGTTAATCGGGTCTTGATTCGCTTGACGCTGCTG  GST-Aq-NF-kB (Amphimedon queenslandica, UniProt A9Y5G7 2-389)            4.25
1  CCGATTAACATCAAAAATTTCCATGATGTTAATCGGGTCTTGATTCGCTTGACGCTGCTG  GST-Aq-NF-kB (Amphimedon queenslandica, UniProt A9Y5G7 2-389)            1.53
2  CCGATTAACATCAAGAGTTCCCCTGATGTTAATCGGGTCTTGATTCGCTTGACGCTGCTG  GST-Aq-NF-kB (Amphimedon queenslandica, UniProt A9Y5G7 2-389)            5.77
3  CCGATTAACATCAATCGTCCCCCTGATGTTAATCGGGTCTTGATTCGCTTGACGCTGCTG  GST-Aq-NF-kB (Amphimedon queenslandica, UniProt A9Y5G7 2-389)            4.81
4  CCGATTAACATCAGGGGGTTACCTGATGTTAATCGGGTCTTGATTCGCTTGACGCTGCTG  GST-Aq-NF-kB (Amphimedon queenslandica, UniProt A9Y5G7 2-389)            8.61

Form: Entry = CCGATTAACATCAAAGTATCCCCTGATGTTAATCGGGTCTTGATTCGCTTGACGCTGCTG | System = GST-Aq-NF-kB (Amphimedon queenslandica, UniProt A9Y5G7 2-389) | binding signal = ____
4.4

Form: Entry = CCGATTAACATCAAGGGGATTTATGATGTTAATCGGGTCTTGATTCGCTTGACGCTGCTG | System = GST-Aq-NF-kB (Amphimedon queenslandica, UniProt A9Y5G7 2-389) | binding signal = ____
6.25

Form: Entry = CCGATTAACATCAAATTCCCAAATGATGTTAATCGGGTCTTGATTCGCTTGACGCTGCTG | System = GST-Aq-NF-kB (Amphimedon queenslandica, UniProt A9Y5G7 2-389) | binding signal = ____
2.31

Form: Entry = CCGATTAACATCAGAATATCCCATGATGTTAATCGGGTCTTGATTCGCTTGACGCTGCTG | System = GST-Aq-NF-kB (Amphimedon queenslandica, UniProt A9Y5G7 2-389) | binding signal = ____
1.86

Form: Entry = CCGATTAACATCAAAAAAAGTACTGATGTTAATCGGGTCTTGATTCGCTTGACGCTGCTG | System = GST-Aq-NF-kB (Amphimedon queenslandica, UniProt A9Y5G7 2-389) | binding signal = ____
1.54

Form: Entry = CCGATTAACATCACAGATTTCCCTGATGTTAATCGGGTCTTGATTCGCTTGACGCTGCTG | System = GST-Aq-NF-kB (Amphimedon queenslandica, UniProt A9Y5G7 2-389) | binding signal = ____
4.24

Form: Entry = CCGATTAACATCAGGGAAAAACATGATGTTAATCGGGTCTTGATTCGCTTGACGCTGCTG | System = GST-Aq-NF-kB (Amphimedon queenslandica, UniProt A9Y5G7 2-389) | binding signal = ____
5.27

Form: Entry = CCGATTAACATCAACGGAATTCCTGATGTTAATCGGGTCTTGATTCGCTTGACGCTGCTG | System = GST-Aq-NF-kB (Amphimedon queenslandica, UniProt A9Y5G7 2-389) | binding signal = ____
1.66

Form: Entry = CCGATTAACATCAGGGGGAAGCATGATGTTAATCGGGTCTTGATTCGCTTGACGCTGCTG | System = GST-Aq-NF-kB (Amphimedon queenslandica, UniProt A9Y5G7 2-389) | binding signal = ____
4.01

Form: Entry = CCGATTAACATCAGGATAATCCCTGATGTTAATCGGGTCTTGATTCGCTTGACGCTGCTG | System = GST-Aq-NF-kB (Amphimedon queenslandica, UniProt A9Y5G7 2-389) | binding signal = ____
5.24

Form: Entry = CCGATTAACATCAAGGAAAGCCCTGATGTTAATCGGGTCTTGATTCGCTTGACGCTGCTG | System = GST-Aq-NF-kB (Amphimedon queenslandica, UniProt A9Y5G7 2-389) | binding signal = ____
3.45

Form: Entry = CCGATTAACATCAACTCCCCCCCTGATGTTAATCGGGTCTTGATTCGCTTGACGCTGCTG | System = GST-Aq-NF-kB (Amphimedon queenslandica, UniProt A9Y5G7 2-389) | binding signal = ____
5.08

Form: Entry = CCGATTAACATCAGGGGGGTACCTGATGTTAATCGGGTCTTGATTCGCTTGACGCTGCTG | System = GST-Aq-NF-kB (Amphimedon queenslandica, UniProt A9Y5G7 2-389) | binding signal = ____
5.74

These entries and their values trace back to paper PMC5700166.
